- tested.system: ROS1 (human)
- protocol.text: KINOMEscan competition binding
- conditions: compound 10.0 µM
Let's look at some molecules and their measured kinase still bound, per cent of control.
Only the number, expressed in %, is required.

COc1cc(N2CCN(C)CC2)ccc1Nc1ncc2c(n1)N(C)c1ccccc1C(=O)N2C
7.6
COCC(=O)NC/C=C/c1ccc2ncnc(Nc3ccc(Oc4ccc(C)nc4)c(C)c3)c2c1
100
C[C@@H](Oc1cc(-c2cnn(C3CCNCC3)c2)cnc1N)c1c(Cl)ccc(F)c1Cl
1.1
CNC(=O)c1cc(Oc2ccc(NC(=O)Nc3ccc(Cl)c(C(F)(F)F)c3)cc2)ccn1
83

stdin: Which value of kinase still bound, per cent of control has been reported for "COc1cc2ncn(-c3cc(OCc4ccccc4C(F)(F)F)c(C(N)=O)s3)c2cc1OC" in the records?
stdout: 78

stdin: Which value of kinase still bound, per cent of control has been reported for "COc1cc2ncnc(-n3nc(-c4ccccn4)nc3N)c2cc1OC" in the records?
stdout: 25

stdin: Which value of kinase still bound, per cent of control has been reported for "C=CC(=O)Nc1ccc(CN(C(=O)Nc2c(Cl)c(OC)cc(OC)c2Cl)c2cc(Nc3ccc(N4CCN(C)CC4)cc3)ncn2)cc1" in the records?
stdout: 100

stdin: Which value of kinase still bound, per cent of control has been reported for "CNC(=O)c1ccc(Nc2cc(Nc3ccccc3S(=O)(=O)C(C)C)c3cc[nH]c3n2)nc1" in the records?
stdout: 0.85

stdin: Which value of kinase still bound, per cent of control has been reported for "COc1ccc(N(C(=O)Oc2c(C)cccc2C)c2ccnc(Nc3ccc(N4CCN(C)CC4)cc3)n2)c(OC)c1" in the records?
stdout: 0.8

stdin: Which value of kinase still bound, per cent of control has been reported for "CS(=O)(=O)N1CCN(Cc2cc3nc(-c4cccc5[nH]ncc45)nc(N4CCOCC4)c3s2)CC1" in the records?
stdout: 100

stdin: Which value of kinase still bound, per cent of control has been reported for "N#CCNC(=O)c1ccc(-c2ccnc(Nc3ccc(N4CCOCC4)cc3)n2)cc1" in the records?
stdout: 100

stdin: Which value of kinase still bound, per cent of control has been reported for "CCN(CC)CCCCNc1ncc2c(n1)N(C)C(=O)N(c1c(Cl)c(OC)cc(OC)c1Cl)C2" in the records?
stdout: 100

stdin: Which value of kinase still bound, per cent of control has been reported for "COc1cc(C(=O)N2CCC(N3CCN(C)CC3)CC2)ccc1Nc1ncc2c(n1)N(C)c1ccccc1C(=O)N2C" in the records?
stdout: 12

stdin: Which value of kinase still bound, per cent of control has been reported for "CN(C)C/C=C/C(=O)Nc1ccc(C(=O)Nc2cccc(Nc3nccc(-c4cccnc4)n3)c2)cc1" in the records?
stdout: 76

stdin: Which value of kinase still bound, per cent of control has been reported for "NC(=O)Nc1cc(-c2cccc(F)c2)sc1C(=O)N[C@@H]1CCCNC1" in the records?
stdout: 2

stdin: Which value of kinase still bound, per cent of control has been reported for "CCN1CCN(C(=O)Cc2ccc(Nc3ncc(F)c(Nc4ccc(C(=O)Nc5ccccc5Cl)cc4)n3)cc2)CC1" in the records?
stdout: 34

stdin: Which value of kinase still bound, per cent of control has been reported for "O=C(Nc1cccc(Nc2ncc(Br)c(NCCc3cnc[nH]3)n2)c1)N1CCCC1" in the records?
stdout: 97

stdin: Which value of kinase still bound, per cent of control has been reported for "O=c1cc(N2CCOCC2)oc2c(-c3cccc4c3sc3ccccc34)cccc12" in the records?
stdout: 90

stdin: Which value of kinase still bound, per cent of control has been reported for "O=C1NC(=O)/C(=C/c2ccc3nccc(-c4ccncc4)c3c2)S1" in the records?
stdout: 78

---

- tested.system: TXK (human) (UniProt P42681)
- Sequence (P42681 whole entry, looked up): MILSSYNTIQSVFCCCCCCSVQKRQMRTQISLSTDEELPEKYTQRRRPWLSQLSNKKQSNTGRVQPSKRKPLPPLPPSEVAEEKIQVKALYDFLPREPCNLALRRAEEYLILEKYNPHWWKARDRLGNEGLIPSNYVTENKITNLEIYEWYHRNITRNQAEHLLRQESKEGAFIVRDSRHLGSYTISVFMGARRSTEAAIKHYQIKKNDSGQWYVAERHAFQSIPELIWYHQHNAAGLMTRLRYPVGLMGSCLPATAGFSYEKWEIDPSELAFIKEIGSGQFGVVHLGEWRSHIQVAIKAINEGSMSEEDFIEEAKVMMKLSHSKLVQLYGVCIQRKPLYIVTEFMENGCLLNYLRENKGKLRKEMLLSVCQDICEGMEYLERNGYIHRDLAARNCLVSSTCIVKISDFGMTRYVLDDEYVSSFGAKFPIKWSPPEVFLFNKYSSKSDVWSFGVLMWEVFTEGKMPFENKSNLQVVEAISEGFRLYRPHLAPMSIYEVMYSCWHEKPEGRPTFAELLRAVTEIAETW
- protocol.text: KINOMEscan competition binding
- conditions: compound 10.0 µM
measure.name: kinase still bound, per cent of control (%)
Only the number, expressed in %, is required.

Recorded results for 3 compounds are shown here.
CNC(=O)c1cc(Oc2ccc(NC(=O)Nc3ccc(Cl)c(C(F)(F)F)c3)cc2)ccn1
77
O=c1cc(N2CCOCC2)oc2c(-c3cccc4c3sc3ccccc34)cccc12
91
COc1cc(N2CCN(C)CC2)ccc1Nc1ncc2c(n1)N(C)c1ccccc1C(=O)N2C
100

Then this compound:
stdin: Which value of kinase still bound, per cent of control has been reported for "CCN(CC)CCCCNc1ncc2c(n1)N(C)C(=O)N(c1c(Cl)c(OC)cc(OC)c1Cl)C2" in the records?
stdout: 100

---

- tested.system: LTK (human) (UniProt P29376)
- Sequence (P29376 whole entry, looked up): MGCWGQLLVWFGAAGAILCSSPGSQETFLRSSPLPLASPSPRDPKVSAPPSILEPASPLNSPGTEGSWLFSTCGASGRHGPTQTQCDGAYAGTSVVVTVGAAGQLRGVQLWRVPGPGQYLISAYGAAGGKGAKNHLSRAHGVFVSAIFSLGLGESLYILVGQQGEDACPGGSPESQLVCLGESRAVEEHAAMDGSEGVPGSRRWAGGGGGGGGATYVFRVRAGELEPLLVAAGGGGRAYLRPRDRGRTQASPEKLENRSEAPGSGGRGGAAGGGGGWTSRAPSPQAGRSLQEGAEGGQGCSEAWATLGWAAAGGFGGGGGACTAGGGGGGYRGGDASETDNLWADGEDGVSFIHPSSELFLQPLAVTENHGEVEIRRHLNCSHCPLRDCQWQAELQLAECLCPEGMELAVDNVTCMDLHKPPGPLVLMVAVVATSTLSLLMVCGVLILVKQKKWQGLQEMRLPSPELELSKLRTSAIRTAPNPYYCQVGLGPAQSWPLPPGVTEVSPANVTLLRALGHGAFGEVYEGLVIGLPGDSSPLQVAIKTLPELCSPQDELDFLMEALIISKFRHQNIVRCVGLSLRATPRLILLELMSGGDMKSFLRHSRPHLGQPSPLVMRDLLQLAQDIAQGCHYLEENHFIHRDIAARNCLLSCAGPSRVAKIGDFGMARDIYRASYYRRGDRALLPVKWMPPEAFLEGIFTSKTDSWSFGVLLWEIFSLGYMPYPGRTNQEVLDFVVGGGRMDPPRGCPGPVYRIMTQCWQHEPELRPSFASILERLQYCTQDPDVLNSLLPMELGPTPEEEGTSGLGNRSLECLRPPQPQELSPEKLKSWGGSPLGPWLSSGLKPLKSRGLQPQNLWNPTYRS
- protocol.text: KINOMEscan competition binding
- conditions: compound 10.0 µM
The threshold is 90%. Values of kinase still bound, per cent of control beneath it are tagged TRUE; values meeting or exceeding it are tagged FALSE.

O=C1NC(=O)/C(=C/c2ccc3nccc(-c4ccncc4)c3c2)S1
TRUE

stdin: Does the reported kinase still bound, per cent of control of "C[C@@H](Oc1cc(-c2cnn(C3CCNCC3)c2)cnc1N)c1c(Cl)ccc(F)c1Cl" stay below 90%?
stdout: TRUE

stdin: Does the reported kinase still bound, per cent of control of "C=CC(=O)Nc1ccc(CN(C(=O)Nc2c(Cl)c(OC)cc(OC)c2Cl)c2cc(Nc3ccc(N4CCN(C)CC4)cc3)ncn2)cc1" stay below 90%?
stdout: TRUE

stdin: Does the reported kinase still bound, per cent of control of "O=c1cc(N2CCOCC2)oc2c(-c3cccc4c3sc3ccccc34)cccc12" stay below 90%?
stdout: FALSE

---

- tested.system: IGF1R (human) (UniProt P08069)
- Sequence (P08069 whole entry, looked up): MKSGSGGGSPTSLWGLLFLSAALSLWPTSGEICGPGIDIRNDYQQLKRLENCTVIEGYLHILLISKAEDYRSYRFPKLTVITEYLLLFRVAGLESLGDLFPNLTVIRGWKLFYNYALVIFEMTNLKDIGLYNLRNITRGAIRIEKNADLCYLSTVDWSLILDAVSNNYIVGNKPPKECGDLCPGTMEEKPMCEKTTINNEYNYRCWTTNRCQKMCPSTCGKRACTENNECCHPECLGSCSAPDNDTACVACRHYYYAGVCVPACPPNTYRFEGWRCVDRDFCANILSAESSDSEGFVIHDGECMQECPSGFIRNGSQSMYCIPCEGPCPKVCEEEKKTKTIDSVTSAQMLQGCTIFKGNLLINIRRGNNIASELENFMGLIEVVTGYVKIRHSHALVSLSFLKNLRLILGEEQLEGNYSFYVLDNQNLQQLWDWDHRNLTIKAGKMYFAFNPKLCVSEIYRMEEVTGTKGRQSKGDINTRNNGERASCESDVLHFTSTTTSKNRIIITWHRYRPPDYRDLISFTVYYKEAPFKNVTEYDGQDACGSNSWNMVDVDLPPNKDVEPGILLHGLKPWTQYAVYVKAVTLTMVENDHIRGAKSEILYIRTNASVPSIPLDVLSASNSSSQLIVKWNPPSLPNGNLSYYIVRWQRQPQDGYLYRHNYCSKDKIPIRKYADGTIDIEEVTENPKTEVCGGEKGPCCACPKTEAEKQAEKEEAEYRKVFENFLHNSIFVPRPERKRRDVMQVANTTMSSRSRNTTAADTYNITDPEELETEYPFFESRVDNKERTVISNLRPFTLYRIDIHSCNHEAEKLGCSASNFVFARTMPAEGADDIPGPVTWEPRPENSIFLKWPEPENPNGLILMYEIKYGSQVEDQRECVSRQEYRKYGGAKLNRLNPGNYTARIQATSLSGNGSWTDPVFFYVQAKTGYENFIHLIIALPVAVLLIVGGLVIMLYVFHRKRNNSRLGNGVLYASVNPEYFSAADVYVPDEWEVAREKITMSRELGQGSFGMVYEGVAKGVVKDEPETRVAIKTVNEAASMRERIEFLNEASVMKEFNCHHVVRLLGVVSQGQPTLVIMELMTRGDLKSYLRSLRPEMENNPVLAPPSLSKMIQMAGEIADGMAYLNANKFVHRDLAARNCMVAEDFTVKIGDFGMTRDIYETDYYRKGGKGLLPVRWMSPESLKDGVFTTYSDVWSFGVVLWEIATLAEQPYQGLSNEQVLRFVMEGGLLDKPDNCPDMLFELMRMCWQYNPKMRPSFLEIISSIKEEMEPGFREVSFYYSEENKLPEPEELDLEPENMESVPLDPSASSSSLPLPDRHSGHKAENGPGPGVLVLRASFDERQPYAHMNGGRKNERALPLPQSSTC
- protocol.text: KINOMEscan competition binding
- conditions: compound 10.0 µM
measure.name: kinase still bound, per cent of control (%)
Only the number, expressed in %, is required.

Recorded results for 2 compounds are shown here.
N#CCNC(=O)c1ccc(-c2ccnc(Nc3ccc(N4CCOCC4)cc3)n2)cc1
100
Cc1n[nH]c2ccc(-c3cncc(OC[C@@H](N)Cc4c[nH]c5ccccc45)c3)cc12
100

stdin: Which value of kinase still bound, per cent of control has been reported for "C=CC(=O)Nc1cc(-n2c(=O)ccc3cnc4ccc(-c5cn[nH]c5)cc4c32)ccc1C" in the records?
stdout: 100

---

Let's look at some compounds and their measured kinase still bound, per cent of control.
- tested.system: LIMK2 (human) (UniProt P53671)
- Sequence (P53671 whole entry, looked up): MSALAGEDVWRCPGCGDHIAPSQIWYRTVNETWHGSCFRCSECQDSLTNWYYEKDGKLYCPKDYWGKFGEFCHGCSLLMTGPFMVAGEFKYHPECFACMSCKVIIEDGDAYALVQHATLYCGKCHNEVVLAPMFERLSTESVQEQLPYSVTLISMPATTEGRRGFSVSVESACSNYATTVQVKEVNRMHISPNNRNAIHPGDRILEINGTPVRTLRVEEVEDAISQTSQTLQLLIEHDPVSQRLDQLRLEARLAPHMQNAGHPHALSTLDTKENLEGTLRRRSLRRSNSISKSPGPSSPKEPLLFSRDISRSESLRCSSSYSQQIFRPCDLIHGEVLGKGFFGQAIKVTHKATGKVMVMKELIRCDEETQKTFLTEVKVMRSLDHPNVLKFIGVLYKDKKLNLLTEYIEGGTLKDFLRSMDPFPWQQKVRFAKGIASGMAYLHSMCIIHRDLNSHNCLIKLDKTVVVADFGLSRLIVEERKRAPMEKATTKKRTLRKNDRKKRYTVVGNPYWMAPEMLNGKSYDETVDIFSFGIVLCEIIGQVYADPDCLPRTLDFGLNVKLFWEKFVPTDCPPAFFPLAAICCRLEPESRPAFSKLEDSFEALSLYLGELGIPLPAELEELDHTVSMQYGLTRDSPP
- protocol.text: KINOMEscan competition binding
- conditions: compound 10.0 µM
State the value, then name its unit.

Recorded results for 2 compounds are shown here.
Cc1n[nH]c2ccc(-c3cncc(OC[C@@H](N)Cc4c[nH]c5ccccc45)c3)cc12
100%
COCC(=O)NC/C=C/c1ccc2ncnc(Nc3ccc(Oc4ccc(C)nc4)c(C)c3)c2c1
100%

Then this compound:
stdin: Tell me reported kinase still bound, per cent of control for "O=c1cc(N2CCOCC2)oc2c(-c3cccc4c3sc3ccccc34)cccc12" , tested with LIMK2 (human) (UniProt P53671).
stdout: 100%

---

- System: MET (human), P08581 [Y1235D]
- protocol.text: KINOMEscan competition binding
- conditions: compound 10.0 µM
measure.name: kinase still bound, per cent of control (%)
Only the number, expressed in %, is required.

C[C@@H](Oc1cc(-n2cnc3ccc(CN4CCN(C)CC4)cc32)sc1C(N)=O)c1ccccc1C(F)(F)F
98

stdin: Which value of kinase still bound, per cent of control has been reported for "C=CC(=O)Nc1cc(NC(=O)c2ccc(C)c(NC(=O)c3ccno3)c2)cc(C(F)(F)F)c1" in the records?
stdout: 100

stdin: Which value of kinase still bound, per cent of control has been reported for "CN(C)C/C=C/C(=O)Nc1cccc(Nc2ncc3c(n2)N(C)c2ccccc2C(=O)N3C)c1" in the records?
stdout: 77

stdin: Which value of kinase still bound, per cent of control has been reported for "N#C/C(=C1/Nc2ccccc2S1)c1ccnc(NCCc2cccnc2)n1" in the records?
stdout: 88

stdin: Which value of kinase still bound, per cent of control has been reported for "COc1cc(C(=O)NC2CCN(C)CC2)ccc1Nc1ncc2c(n1)N(C1CCCC1)CCC(=O)N2C(C)C" in the records?
stdout: 100

stdin: Which value of kinase still bound, per cent of control has been reported for "C=CC(=O)Nc1ccc(C(=O)c2sc(Nc3ccc(N4CCN(C)CC4)cc3OC)nc2N)cc1" in the records?
stdout: 100

stdin: Which value of kinase still bound, per cent of control has been reported for "Cc1cc([C@@H](C)Nc2ccccc2C(=O)O)c2nc(N3CCOCC3)cc(=O)n2c1" in the records?
stdout: 78

stdin: Which value of kinase still bound, per cent of control has been reported for "CCN1CCN(Cc2ccc(Nc3ncc4c(n3)N(C)c3ccccc3C(=O)N4C)cc2C(F)(F)F)CC1" in the records?
stdout: 86

stdin: Which value of kinase still bound, per cent of control has been reported for "Cc1ccc2nc(NCCN)c3ncc(C)n3c2c1" in the records?
stdout: 100

---

Let's look at some compounds and their measured kinase still bound, per cent of control.
- tested.system: MYO3B (human) (UniProt Q8WXR4)
- Sequence (Q8WXR4 whole entry, looked up): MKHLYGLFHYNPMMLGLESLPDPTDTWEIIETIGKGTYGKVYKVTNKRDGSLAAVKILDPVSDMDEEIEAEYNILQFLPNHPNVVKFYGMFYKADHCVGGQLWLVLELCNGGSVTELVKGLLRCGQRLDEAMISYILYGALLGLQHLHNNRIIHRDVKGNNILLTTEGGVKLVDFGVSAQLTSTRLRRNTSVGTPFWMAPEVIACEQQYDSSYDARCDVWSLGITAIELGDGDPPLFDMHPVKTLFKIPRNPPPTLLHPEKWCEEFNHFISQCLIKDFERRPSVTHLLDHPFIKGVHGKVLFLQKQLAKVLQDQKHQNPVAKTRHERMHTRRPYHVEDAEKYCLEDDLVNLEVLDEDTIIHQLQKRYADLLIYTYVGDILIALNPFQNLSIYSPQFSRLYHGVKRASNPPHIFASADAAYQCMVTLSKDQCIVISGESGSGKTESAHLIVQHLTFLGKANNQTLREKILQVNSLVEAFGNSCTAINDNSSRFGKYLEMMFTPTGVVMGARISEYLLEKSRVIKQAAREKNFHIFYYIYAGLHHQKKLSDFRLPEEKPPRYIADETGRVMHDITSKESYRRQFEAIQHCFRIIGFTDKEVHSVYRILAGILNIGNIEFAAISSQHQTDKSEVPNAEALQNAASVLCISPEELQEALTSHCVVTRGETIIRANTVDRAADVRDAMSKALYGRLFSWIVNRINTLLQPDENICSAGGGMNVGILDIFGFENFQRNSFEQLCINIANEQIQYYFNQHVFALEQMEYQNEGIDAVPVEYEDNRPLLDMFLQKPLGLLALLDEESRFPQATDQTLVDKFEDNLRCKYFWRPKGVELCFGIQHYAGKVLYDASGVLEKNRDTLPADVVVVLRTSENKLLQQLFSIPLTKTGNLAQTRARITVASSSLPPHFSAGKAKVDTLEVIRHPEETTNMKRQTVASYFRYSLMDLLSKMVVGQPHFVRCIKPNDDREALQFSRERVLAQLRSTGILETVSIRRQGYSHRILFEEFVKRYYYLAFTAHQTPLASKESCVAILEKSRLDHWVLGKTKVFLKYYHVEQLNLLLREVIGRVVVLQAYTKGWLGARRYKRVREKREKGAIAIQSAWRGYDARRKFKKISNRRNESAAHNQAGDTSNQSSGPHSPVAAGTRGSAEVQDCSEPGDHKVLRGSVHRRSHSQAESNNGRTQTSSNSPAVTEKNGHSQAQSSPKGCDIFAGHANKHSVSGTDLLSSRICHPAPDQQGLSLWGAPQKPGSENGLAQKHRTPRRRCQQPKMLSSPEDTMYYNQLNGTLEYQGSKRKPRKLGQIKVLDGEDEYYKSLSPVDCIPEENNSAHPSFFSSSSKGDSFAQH
- protocol.text: KINOMEscan competition binding
- conditions: compound 10.0 µM
Only the number, expressed in %, is required.

Recorded results for 5 compounds are shown here.
CCN(CC)CCCCNc1ncc2cc(-c3cc(OC)cc(OC)c3)c(NC(=O)NC(C)(C)C)nc2n1
100
CNC(=O)c1ccc(Nc2cc(Nc3ccccc3S(=O)(=O)C(C)C)c3cc[nH]c3n2)nc1
100
COc1cc2ncnc(-n3nc(-c4ccccn4)nc3N)c2cc1OC
100
O=c1cc(N2CCOCC2)oc2c(-c3cccc4c3sc3ccccc34)cccc12
100
COc1cc2ncn(-c3cc(OCc4ccccc4C(F)(F)F)c(C(N)=O)s3)c2cc1OC
100

stdin: Tell me reported kinase still bound, per cent of control for "CS(=O)(=O)N1CCN(Cc2cc3nc(-c4cccc5[nH]ncc45)nc(N4CCOCC4)c3s2)CC1" , tested with MYO3B (human) (UniProt Q8WXR4).
stdout: 100

stdin: Tell me reported kinase still bound, per cent of control for "CCN(CC)CCCCNc1ncc2c(n1)N(C)C(=O)N(c1c(Cl)c(OC)cc(OC)c1Cl)C2" , tested with MYO3B (human) (UniProt Q8WXR4).
stdout: 100

stdin: Tell me reported kinase still bound, per cent of control for "O=C1NC(=O)/C(=C/c2ccc3nccc(-c4ccncc4)c3c2)S1" , tested with MYO3B (human) (UniProt Q8WXR4).
stdout: 97

stdin: Tell me reported kinase still bound, per cent of control for "NC(=O)Nc1cc(-c2cccc(F)c2)sc1C(=O)N[C@@H]1CCCNC1" , tested with MYO3B (human) (UniProt Q8WXR4).
stdout: 8.2

stdin: Tell me reported kinase still bound, per cent of control for "CN(C)C/C=C/C(=O)Nc1ccc(C(=O)Nc2cccc(Nc3nccc(-c4cccnc4)n3)c2)cc1" , tested with MYO3B (human) (UniProt Q8WXR4).
stdout: 100

stdin: Tell me reported kinase still bound, per cent of control for "COc1cc(C(=O)N2CCC(N3CCN(C)CC3)CC2)ccc1Nc1ncc2c(n1)N(C)c1ccccc1C(=O)N2C" , tested with MYO3B (human) (UniProt Q8WXR4).
stdout: 83

stdin: Tell me reported kinase still bound, per cent of control for "CCN1CCN(C(=O)Cc2ccc(Nc3ncc(F)c(Nc4ccc(C(=O)Nc5ccccc5Cl)cc4)n3)cc2)CC1" , tested with MYO3B (human) (UniProt Q8WXR4).
stdout: 100

stdin: Tell me reported kinase still bound, per cent of control for "COc1cc(N2CCN(C)CC2)ccc1Nc1ncc2c(n1)N(C)c1ccccc1C(=O)N2C" , tested with MYO3B (human) (UniProt Q8WXR4).
stdout: 100

stdin: Tell me reported kinase still bound, per cent of control for "C[C@@H](Oc1cc(-c2cnn(C3CCNCC3)c2)cnc1N)c1c(Cl)ccc(F)c1Cl" , tested with MYO3B (human) (UniProt Q8WXR4).
stdout: 100

stdin: Tell me reported kinase still bound, per cent of control for "CNC(=O)c1cc(Oc2ccc(NC(=O)Nc3ccc(Cl)c(C(F)(F)F)c3)cc2)ccn1" , tested with MYO3B (human) (UniProt Q8WXR4).
stdout: 28

stdin: Tell me reported kinase still bound, per cent of control for "Cc1n[nH]c2ccc(-c3cncc(OC[C@@H](N)Cc4c[nH]c5ccccc45)c3)cc12" , tested with MYO3B (human) (UniProt Q8WXR4).
stdout: 100

stdin: Tell me reported kinase still bound, per cent of control for "COc1ccc(N(C(=O)Oc2c(C)cccc2C)c2ccnc(Nc3ccc(N4CCN(C)CC4)cc3)n2)c(OC)c1" , tested with MYO3B (human) (UniProt Q8WXR4).
stdout: 18
